Where do the numbers come from? From ChEMBL document CHEMBL1132255.

molecular target: Fibroblast growth factor receptor 1 (Homo sapiens); assay: Inhibition of [32P]ATP incorporated (phosphorylation) into glutamate-tyrosine copolymer substrate by human fibroblast growth factor receptor 1
Sequence (P11362 whole entry): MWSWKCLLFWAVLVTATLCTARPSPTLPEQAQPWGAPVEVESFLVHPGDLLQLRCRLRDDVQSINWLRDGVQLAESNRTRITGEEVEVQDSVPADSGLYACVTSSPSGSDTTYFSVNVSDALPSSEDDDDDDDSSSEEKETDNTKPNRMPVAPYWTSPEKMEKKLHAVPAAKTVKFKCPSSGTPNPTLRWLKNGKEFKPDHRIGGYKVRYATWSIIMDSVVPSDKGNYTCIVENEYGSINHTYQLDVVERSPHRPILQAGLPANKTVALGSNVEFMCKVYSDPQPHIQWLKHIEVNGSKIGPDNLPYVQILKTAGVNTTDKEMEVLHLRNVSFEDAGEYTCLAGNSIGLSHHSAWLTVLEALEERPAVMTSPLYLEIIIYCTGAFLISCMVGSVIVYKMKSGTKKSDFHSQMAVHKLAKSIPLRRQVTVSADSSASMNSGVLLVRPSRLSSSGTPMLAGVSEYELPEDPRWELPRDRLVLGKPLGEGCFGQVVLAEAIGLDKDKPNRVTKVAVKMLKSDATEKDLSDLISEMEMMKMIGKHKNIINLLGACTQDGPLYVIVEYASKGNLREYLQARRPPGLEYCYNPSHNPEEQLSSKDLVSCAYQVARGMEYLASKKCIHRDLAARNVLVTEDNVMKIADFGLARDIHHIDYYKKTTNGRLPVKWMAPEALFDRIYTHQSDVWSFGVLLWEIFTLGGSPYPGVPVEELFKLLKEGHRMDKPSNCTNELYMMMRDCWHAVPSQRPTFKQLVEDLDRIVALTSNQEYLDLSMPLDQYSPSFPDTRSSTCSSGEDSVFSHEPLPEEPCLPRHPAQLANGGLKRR
measured_parameter: pIC50
Remember the convention: pIC50 equals -log10 of concentration in molar.

Prompt: So what's the measured pIC50 for this one? CSc1ccc2c(c1)ncn2-c1ccccc1
Completion: 4.57

Prompt: So what's the measured pIC50 for this one? COc1cc2ncn(-c3ccccc3)c2cc1CO
Completion: 4.96

Prompt: So what's the measured pIC50 for this one? c1ccc(-n2cnc3cc(SCCCN4CCOCC4)ccc32)cc1
Completion: 4.62

Prompt: So what's the measured pIC50 for this one? CN(C)CCCCOc1ccc2c(c1)ncn2-c1ccccc1
Completion: 5.17

---

biological target: Platelet-derived growth factor receptor beta (Mus musculus, UniProt P05622)
Sequence (P05622 whole entry): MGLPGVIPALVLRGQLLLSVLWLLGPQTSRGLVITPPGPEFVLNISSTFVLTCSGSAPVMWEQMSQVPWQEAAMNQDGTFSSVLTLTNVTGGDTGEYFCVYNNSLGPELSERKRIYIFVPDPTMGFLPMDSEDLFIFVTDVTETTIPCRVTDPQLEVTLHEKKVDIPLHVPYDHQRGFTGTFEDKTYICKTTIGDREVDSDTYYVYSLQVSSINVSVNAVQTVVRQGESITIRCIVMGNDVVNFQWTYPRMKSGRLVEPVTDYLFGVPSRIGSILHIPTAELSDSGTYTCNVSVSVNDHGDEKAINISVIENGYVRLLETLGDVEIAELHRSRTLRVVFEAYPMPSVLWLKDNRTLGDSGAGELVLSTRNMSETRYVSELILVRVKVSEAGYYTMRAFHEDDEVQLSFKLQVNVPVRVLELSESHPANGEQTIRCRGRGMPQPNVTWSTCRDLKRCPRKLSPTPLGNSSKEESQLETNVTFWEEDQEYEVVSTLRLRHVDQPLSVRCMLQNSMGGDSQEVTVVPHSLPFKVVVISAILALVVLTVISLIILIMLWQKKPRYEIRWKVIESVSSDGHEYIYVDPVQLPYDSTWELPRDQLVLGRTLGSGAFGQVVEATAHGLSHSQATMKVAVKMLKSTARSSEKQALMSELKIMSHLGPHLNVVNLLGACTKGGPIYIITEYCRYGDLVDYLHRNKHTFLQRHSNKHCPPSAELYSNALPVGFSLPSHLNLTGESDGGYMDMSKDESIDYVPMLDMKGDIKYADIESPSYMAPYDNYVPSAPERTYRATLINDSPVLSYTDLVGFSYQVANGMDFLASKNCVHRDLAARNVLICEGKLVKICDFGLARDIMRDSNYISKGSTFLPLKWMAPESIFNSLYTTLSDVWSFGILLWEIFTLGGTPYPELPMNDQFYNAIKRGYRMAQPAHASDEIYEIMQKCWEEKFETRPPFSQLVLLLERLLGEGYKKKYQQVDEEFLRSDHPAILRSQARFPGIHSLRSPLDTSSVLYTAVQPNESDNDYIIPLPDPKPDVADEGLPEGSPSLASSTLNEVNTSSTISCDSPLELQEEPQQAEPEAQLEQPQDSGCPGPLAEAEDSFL
pIC50: −log10 of the molar value.
Please mark MET if the recorded pIC50 is equal to or greater than 6, and NOT MET if it falls below.

Prompt: Say whether COc1ccc2c(ncn2-c2ccccc2)c1OC shows pIC50 of 6 or more.
Completion: NOT MET

Prompt: Say whether Oc1cccc2c1ncn2-c1ccccc1 shows pIC50 of 6 or more.
Completion: NOT MET

Prompt: Say whether COc1cc2ncn(-c3ccccc3)c2cc1CO shows pIC50 of 6 or more.
Completion: MET

Prompt: Say whether CN(C)CCCCOc1ccc2c(c1)ncn2-c1ccccc1 shows pIC50 of 6 or more.
Completion: MET

Prompt: Say whether C=CCOc1ccc2c(ncn2-c2ccccc2)c1Br shows pIC50 of 6 or more.
Completion: NOT MET

Prompt: Say whether c1ccc(-n2cnc3cc(SCCCN4CCOCC4)ccc32)cc1 shows pIC50 of 6 or more.
Completion: NOT MET

Prompt: Say whether c1ccc(-n2cnc3cc(OCCCN4CCOCC4)ccc32)cc1 shows pIC50 of 6 or more.
Completion: MET

Prompt: Say whether c1ccc(-n2cnc3cc(OCC4CO4)ccc32)cc1 (stereo unspecified) shows pIC50 of 6 or more.
Completion: MET

Prompt: Say whether COc1c(O)ccc2c1ncn2-c1ccccc1 shows pIC50 of 6 or more.
Completion: NOT MET
